FYI, the data here is from patent US20250129103A1.

This listing pairs compounds with measured IC50.
- Target Under Test: KRAS G12C (GMPPNP-loaded) and cRAF (Ras-binding domain) interaction (Homo sapiens (Human), UniProt P01116, C118S/C51S/C80L/G12C)
- Sequence (P01116 other isoform, or with tags, fused parts or gaps G12C/C51S/C80L/C118S): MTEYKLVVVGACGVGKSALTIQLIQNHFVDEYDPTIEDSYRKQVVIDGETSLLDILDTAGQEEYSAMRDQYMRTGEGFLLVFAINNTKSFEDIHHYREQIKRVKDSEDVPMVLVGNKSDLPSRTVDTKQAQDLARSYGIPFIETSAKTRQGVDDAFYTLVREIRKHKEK
- Procedure Summary: Inhibition of KRAS G12C and cRAF binding (AlphaScreen)
- Measurement Context: KRAS G12C loaded with GMPPNP, cRaf RBD, 2 hours preincubation; read-out: Raf-1 RBD K-Ras IC50
Experimental Readout: IC50

{"Entry Smiles": "N#CC[C@H]1CN(c2nc(OCC34CCCN3CCC4)nc3c2CCN(c2cccc4cccc(Cl)c24)C3)CCN1C(=O)/C=C/CN1CC2CC(C1)O2", "Reported Result": "< 10 nM"}
{"Entry Smiles": "Cc1cc(N)nc(-c2ncc3c(N4CCN(C(=O)/C=C/CN5CCOCC5)[C@@H](CC#N)C4)nc(OC[C@@]45CCCN4C[C@H](F)C5)nc3c2F)c1C(F)(F)F", "Reported Result": "10 to 100 nM"}
{"Entry Smiles": "N#CC[C@H]1CN(c2nc(OC[C@@]34CCCN3C[C@H](F)C4)nc3c(F)c(-c4cccc5ccc(F)c(F)c45)ncc23)CCN1C(=O)/C=C/CN1CCOCC1", "Reported Result": "< 10 nM"}
{"Entry Smiles": "Cc1noc(/C=C/C(=O)N2CCN(c3nc(OC[C@@]45CCCN4C[C@H](F)C5)nc4c(F)c(-c5cccc6cccc(Cl)c56)ncc34)C[C@@H]2CC#N)n1", "Reported Result": "10 to 100 nM"}
{"Entry Smiles": "N#CC[C@H]1CN(c2nc(OC[C@@]34CCCN3C[C@H](F)C4)nc3c2CCN(c2cccc4ccc(F)c(Cl)c24)C3)CCN1C(=O)/C=C/CN1CCOCC1", "Reported Result": "< 10 nM"}
{"Entry Smiles": "N#CC[C@H]1CN(c2nc(OCC34CCCN3CCC4)nc3c2CCN(c2cccc4cccc(Cl)c24)C3)CCN1C(=O)/C=C/CN1CCS(=O)(=O)CC1", "Reported Result": "10 to 100 nM"}
{"Entry Smiles": "C[C@H]1CN(C/C=C/C(=O)N2CCN(c3nc(OCC45CCCN4CCC5)nc4c3CCN(c3cccc5cccc(Cl)c35)C4)C[C@@H]2CC#N)C[C@H](C)O1", "Reported Result": "< 10 nM"}
{"Entry Smiles": "N#CC[C@H]1CN(c2nc(OC[C@@]34CCCN3C[C@H](F)C4)nc3c(F)c(-c4cccc5ccc(F)c(Cl)c45)ncc23)CCN1C(=O)/C=C/CN1C[C@H]2C[C@@H]1CO2", "Reported Result": "< 10 nM"}
{"Entry Smiles": "CC(F)(F)c1noc(/C=C/C(=O)N2CCN(c3nc(OC[C@@]45CCCN4C[C@H](F)C5)nc4c3CCN(c3cccc5cccc(Cl)c35)C4)C[C@@H]2CC#N)n1", "Reported Result": "< 10 nM"}
{"Entry Smiles": "N#CC[C@H]1CN(c2nc(OCC34CCCN3CCC4)nc3c(F)c(-c4cccc5ccc(F)c(Cl)c45)ncc23)CCN1C(=O)/C=C/CN1C[C@H]2C[C@@H]1CO2", "Reported Result": "< 10 nM"}
{"Entry Smiles": "N#CC[C@H]1CN(c2nc(OC[C@@]34CCCN3C[C@H](F)C4)nc3c(F)c(-c4cccc5cccc(Cl)c45)ncc23)CCN1C(=O)/C=C/CN1C[C@H]2CC[C@@H]1CO2", "Reported Result": "< 10 nM"}

###

- Target Under Test: KRAS G12C (GMPPNP-loaded) and cRAF (Ras-binding domain) interaction (Homo sapiens (Human), UniProt P01116, C118S/C51S/C80L/G12C)
- Procedure Summary: Inhibition of KRAS G12C and cRAF binding (AlphaScreen)
- Measurement Context: KRAS G12C loaded with GMPPNP, cRaf RBD, 2 hours preincubation; read-out: Raf-1 RBD K-Ras IC50
pIC50: −log10 of the molar value.

{"Entry Smiles": "CO[C@@H]1CCN(C/C=C/C(=O)N2CCN(c3nc(OC[C@@]45CCCN4C[C@H](F)C5)nc4c(F)c(-c5cccc6ccc(F)c(Cl)c56)ncc34)C[C@@H]2CC#N)C1", "pIC50": "> 8.00"}
{"Entry Smiles": "Cn1cc(/C=C/C(=O)N2CCN(c3nc(OCC45CCCN4CCC5)nc4c3CCN(c3cccc5cccc(Cl)c35)C4)C[C@@H]2CC#N)nn1", "pIC50": "< 6.30"}
{"Entry Smiles": "CO[C@@H]1CCN(C/C=C/C(=O)N2CCN(c3nc(OC[C@@]45CCCN4C[C@H](F)C5)nc4c(F)c(-c5cccc6cccc(F)c56)ncc34)C[C@@H]2CC#N)C1", "pIC50": "> 8.00"}
{"Entry Smiles": "N#CC[C@H]1CN(c2nc(OC[C@@]34CCCN3C[C@H](F)C4)nc3c(F)c(-c4cccc5ccc(F)c(F)c45)ncc23)CCN1C(=O)/C=C/CN1CCn2nccc2C1", "pIC50": "7.00 to 8.00"}
{"Entry Smiles": "CO[C@H]1CCN(C/C=C/C(=O)N2CCN(c3nc(OCC45CCCN4CCC5)nc4c3CCN(c3cccc5cccc(Cl)c35)C4)C[C@@H]2CC#N)C1", "pIC50": "> 8.00"}

###

- Target Under Test: KRAS G12C (GMPPNP-loaded) and cRAF (Ras-binding domain) interaction (Homo sapiens (Human), UniProt P01116, C118S/C51S/C80L/G12C)
- Procedure Summary: Inhibition of KRAS G12C and cRAF binding (AlphaScreen)
- Measurement Context: KRAS G12C loaded with GMPPNP, cRaf RBD, 2 hours preincubation; read-out: Raf-1 RBD K-Ras IC50

{"Entry Smiles": "C#Cc1c(F)ccc2cccc(-c3ncc4c(N5CCN(C(=O)/C=C/CN6CCOCC6)[C@@H](CC#N)C5)nc(OC[C@@]56CCCN5C[C@H](F)C6)nc4c3F)c12", "IC50": "< 10 nM"}
{"Entry Smiles": "Cc1nsc(/C=C/C(=O)N2CCN(c3nc(OC[C@@]45CCCN4C[C@H](F)C5)nc4c3C[C@@H](C)[C@H](c3nc(N)cc(C)c3C(F)(F)F)C4)C[C@@H]2CC#N)n1", "IC50": "< 10 nM"}
{"Entry Smiles": "CCc1c(F)ccc2cccc(-c3ncc4c(N5CCN(C(=O)/C=C/c6ccnc(C)n6)[C@@H](CC#N)C5)nc(OC[C@@]56CCCN5C[C@H](F)C6)nc4c3F)c12", "IC50": "< 10 nM"}
{"Entry Smiles": "Cn1cnc(/C=C/C(=O)N2CCN(c3nc(OCC45CCCN4CCC5)nc4c3CCN(c3cccc5cccc(Cl)c35)C4)C[C@@H]2CC#N)c1", "IC50": "> 500 nM"}
{"Entry Smiles": "CC1(/C=C/C(=O)N2CCN(c3nc(OCC45CCCN4CCC5)nc4c3CCN(c3cccc5cccc(Cl)c35)C4)C[C@@H]2CC#N)COC1", "IC50": "> 500 nM"}

###

- Procedure Summary: Determination of kinetic solubility (pH 7.4)
- Assay type: physicochemical
- Measurement Context: phosphate buffer, pH 7.4, aqueous buffer, kinetic from dmso stock, 50 mM phosphate buffer pH 7.4, read-out: Ksol, pH 7.4
Experimental Readout: log10(solubility kinetic at 2 h) (log10 of the value in µg/mL)

{"Entry Smiles": "Cc1c(F)ccc2cccc(-c3ncc4c(N5CCN(C(=O)/C=C/CN6CC7CC(C6)O7)[C@@H](CC#N)C5)nc(OC[C@@]56CCCN5C[C@H](F)C6)nc4c3F)c12", "log10(solubility kinetic at 2 h)": 1.95}
{"Entry Smiles": "C[C@@H]1CN(C/C=C/C(=O)N2CCN(c3nc(OC[C@@]45CCCN4C[C@H](F)C5)nc4c(F)c(-c5cccc6ccc(F)c(F)c56)ncc34)C[C@@H]2CC#N)C[C@@H](C)O1", "log10(solubility kinetic at 2 h)": 1.78}
{"Entry Smiles": "Cc1ncc(F)c(/C=C/C(=O)N2CCN(c3nc(OC[C@@]45CCCN4C[C@H](F)C5)nc4c(F)c(-c5cccc6cccc(Cl)c56)ncc34)C[C@@H]2CC#N)n1", "log10(solubility kinetic at 2 h)": -0.26}
{"Entry Smiles": "N#CC[C@H]1CN(c2nc(OC[C@@]34CCCN3C[C@H](F)C4)nc3c(F)c(-c4cccc5cccc(Cl)c45)ncc23)CCN1C(=O)/C=C/CN1CC[C@@H]2COC[C@H]21", "log10(solubility kinetic at 2 h)": 2.07}
{"Entry Smiles": "Cc1nccc(/C=C/C(=O)N2CCN(c3nc(OCC45CCCN4CCC5)nc4c(F)c(-c5cccc6cccc(Cl)c56)ncc34)C[C@@H]2CC#N)n1", "log10(solubility kinetic at 2 h)": 2.03}
{"Entry Smiles": "N#CC[C@H]1CN(c2nc(OC[C@@]34CCCN3C[C@H](F)C4)nc3c(F)c(-c4cccc(Cl)c4C4CC4)ncc23)CCN1C(=O)/C=C/CN1CCCOCC1", "log10(solubility kinetic at 2 h)": 1.72}
{"Entry Smiles": "N#CC[C@H]1CN(c2nc(OC[C@@]34CCCN3C[C@H](F)C4)nc3c(F)c(-c4cccc5cccc(Cl)c45)ncc23)CCN1C(=O)/C=C/CN1CCOCC1", "log10(solubility kinetic at 2 h)": 2.04}
{"Entry Smiles": "CC(C)c1noc(/C=C/C(=O)N2CCN(c3nc(OCC45CCCN4CCC5)nc4c(F)c(-c5cccc6cccc(Cl)c56)ncc34)C[C@@H]2CC#N)n1", "log10(solubility kinetic at 2 h)": 1.42}
{"Entry Smiles": "N#CC[C@H]1CN(c2nc(OC[C@@]34CCCN3C[C@H](F)C4)nc3c(F)c(-c4ccccc4C(F)F)ncc23)CCN1C(=O)/C=C/CN1[C@@H]2CC[C@H]1COC2", "log10(solubility kinetic at 2 h)": 2.15}
{"Entry Smiles": "N#CC[C@H]1CN(c2nc(OC[C@@]34CCCN3C[C@H](F)C4)nc3c(F)c(-c4cccc5cccc(Cl)c45)ncc23)CCN1C(=O)/C=C/CN1C[C@H]2COC[C@H]2C1", "log10(solubility kinetic at 2 h)": 1.98}
{"Entry Smiles": "N#CC[C@H]1CN(c2nc(OCC34CCCN3CCC4)nc3c2CCN(c2cccc4cccc(Cl)c24)C3)CCN1C(=O)/C=C/c1nc(C(F)F)no1", "log10(solubility kinetic at 2 h)": 1.39}
